# Experimental system: Solute carrier organic anion transporter family member 1B3 (Homo sapiens, UniProt Q9NPD5)
# Sequence (Q9NPD5 whole entry): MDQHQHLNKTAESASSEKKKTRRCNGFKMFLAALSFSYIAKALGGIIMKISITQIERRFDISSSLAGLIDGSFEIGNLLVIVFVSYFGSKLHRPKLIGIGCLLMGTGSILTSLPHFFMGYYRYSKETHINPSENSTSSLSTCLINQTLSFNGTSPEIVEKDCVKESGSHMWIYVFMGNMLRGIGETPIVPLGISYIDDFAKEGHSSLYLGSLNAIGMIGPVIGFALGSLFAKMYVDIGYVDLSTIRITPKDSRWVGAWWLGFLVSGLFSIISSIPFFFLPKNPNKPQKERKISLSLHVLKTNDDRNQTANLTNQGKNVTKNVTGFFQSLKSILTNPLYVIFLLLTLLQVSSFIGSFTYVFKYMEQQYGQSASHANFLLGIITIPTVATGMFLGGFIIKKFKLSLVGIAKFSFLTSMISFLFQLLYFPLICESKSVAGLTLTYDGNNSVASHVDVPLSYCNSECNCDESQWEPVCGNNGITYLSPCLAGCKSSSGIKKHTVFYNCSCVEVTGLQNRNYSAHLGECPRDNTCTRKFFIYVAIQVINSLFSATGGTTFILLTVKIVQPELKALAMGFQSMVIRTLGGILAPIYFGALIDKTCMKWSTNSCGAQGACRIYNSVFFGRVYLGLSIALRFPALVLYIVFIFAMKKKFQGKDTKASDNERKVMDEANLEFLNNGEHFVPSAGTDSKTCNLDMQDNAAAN
# Protocol conditions: chinese hamster, cho, 10 µM
Please go through the items and note down their residual activity.
Answers are plain numbers, in %.

See these solved cases before continuing.
Nc1ccc(C(=O)[O-])c(O)c1.O.O.[Na+] [AMINOSALICYLATE SODIUM] | 88.86
CC(C)=CCOc1c2occc2cc2ccc(=O)oc12 | 131.4
C[C@H](CS)C(=O)N1CCC[C@H]1C(=O)O | 105.2
CC(=O)O[C@@H]1CC(=O)[C@]2(C)[C@H]3CC[C@@]4(C)[C@H](c5ccoc5)OC(=O)[C@H]5O[C@]54[C@]3(C)C(=O)C[C@H]2C1(C)C | 97.89
CCCSc1ccc2nc(NC(=O)OC)[nH]c2c1 | 95.9

Lab note: each compound below needs its residual activity filled in.
1. Oc1ccc2c(c1)O[C@H](c1ccc(O)c(O)c1)[C@@H](O)C2
2. C=C[C@H]1CN2CC[C@H]1C[C@H]2[C@H](O)c1ccnc2ccc(OC)cc12.C=C[C@H]1CN2CC[C@H]1C[C@H]2[C@H](O)c1ccnc2ccc(OC)cc12.O.O.O=S(=O)(O)O [QUININE SULFATE]
3. COc1cc(O)c(C(=O)/C=C/c2ccccc2)c(OC)c1

[95.23, 99.87, 125.2]

Lab note: each compound below needs its residual activity filled in.
1. CC1(C)CC2C1CCC1(C)OC2(C)CCC1O (stereo unspecified)
2. C/C=C(\C)C(=O)O[C@H]1[C@H](OC(C)=O)[C@@]2(CO)C(CC1(C)C)C1=CC[C@@H]3[C@@]4(C)CC[C@H](O[C@@H]5O[C@H](C(=O)O)[C@@H](O[C@@H]6O[C@H](CO)[C@@H](O)[C@H](O)[C@H]6O)[C@H](O)[C@H]5O[C@@H]5O[C@H](CO)[C@@H](O)[C@H](O)[C@H]5O)[C@H](CO)C4CC[C@@]3(C)[C@@]1(C)C[C@H]2O (stereo partly specified)
3. OC(c1cc(C(F)(F)F)nc2c(C(F)(F)F)cccc12)C1CCCCN1 (stereo unspecified)
4. O=C(/C=C/c1ccc(O)cc1)c1ccc(O)cc1O
5. O=C(NC(=O)c1c(F)cccc1F)Nc1cc(Cl)c(OC(F)(F)C(F)C(F)(F)F)cc1Cl (stereo unspecified)

[80.05, 11.66, 112.7, 119.2, 97.09]

Lab note: each compound below needs its residual activity filled in.
1. COc1ccc(CCN2CCC(Nc3nc4ccccc4n3Cc3ccc(F)cc3)CC2)cc1
2. C=C1CCC2C(CC2(C)C)C(=C)CC/C1=N/O (stereo unspecified) [5-HYDROXYIMINOISOCARYOPHYLLENE]
3. CC(C)=CC1C(C(=O)OCc2cccc(Oc3ccccc3)c2)C1(C)C (stereo unspecified)

1: 97.68; 2: 80.99; 3: 107.3

Lab note: each compound below needs its residual activity filled in.
1. CC1(C)[C@@H](O)C=C[C@]2(C)[C@H]3CC[C@@]4(C)[C@H](c5ccoc5)OC(=O)[C@H]5O[C@]54[C@]3(C)C(=O)C[C@@H]12
2. COc1ccc2c(c1)OCC(Cc1ccc(OC)c(OC)c1)C2=O (stereo unspecified)
3. CCC(C)C(=O)O[C@@H]1C[C@]2(C)[C@H](c3ccoc3)OC(=O)CC23OC2(C)OC34[C@H](OC(=O)C(C)C)[C@@]3(O)[C@@H](OC(=O)[C@]5(C)O[C@H]5C)[C@]5(C)C[C@@]3(O)[C@@](C)([C@H]5CC(=O)OC)C14O2 (stereo partly specified)
4. O=C1[C@H](CC[C@H](O)c2ccc(F)cc2)[C@@H](c2ccc(O)cc2)N1c1ccc(F)cc1
5. O=c1cc(-c2ccccc2)oc2cc(O)c(O)c(O)c12
6. O=C1C=C2CC3(O)COc4cc(O)ccc4C3=C2C=C1O (stereo unspecified)
7. CN1CCN(CCCN2c3ccccc3Sc3ccc(C(F)(F)F)cc32)CC1.Cl
8. COc1ccc(-c2c(O)c3c(OC)c4c(cc3oc2=O)OC(C)(C)C=C4)cc1

[22.22, 150.7, 0.6163, 30.63, 90.2, 95.51, 70.51, 74.37]

Lab note: each compound below needs its residual activity filled in.
1. COc1ccc(-c2coc3cc(OC)cc(OC)c3c2=O)cc1
2. Cc1ccc(S(=O)(=O)NC(=O)NN2CC3CCCC3C2)cc1 (stereo unspecified) [GLICLAZIDE]
3. COC(=O)C[C@H]1C(C)(C)[C@@H](OC(C)=O)[C@@H]2CC3C4CC(=O)O[C@@H](c5ccoc5)[C@]4(C)CCC3[C@@]1(C)C2=O (stereo partly specified) [DIHYDROFISSINOLIDE]
4. COc1ccccc1OCC(O)CN1CCN(CC(=O)Nc2c(C)cccc2C)CC1 (stereo unspecified)
5. CCCCC[C@H](CC(=O)O)C(=O)O

[81.69, 113.3, 77.17, 83.1, 117]

Lab note: each compound below needs its residual activity filled in.
1. O=c1c(O)c(-c2ccc(O)cc2O)oc2cc(O)cc(O)c12
2. CC(C)=CCCC1(C)C=Cc2c(O)c3c(c(CC=C(C)C)c2O1)OC12C(=CCCC1C(C)(C)O[C@@]2(C/C=C(\C)C(=O)O)C(=O)O)C3=O (stereo partly specified)

1: 45.37; 2: 3.626

---

Please go through the items and note down their residual activity.
# Experimental system: Solute carrier organic anion transporter family member 1B1 (Homo sapiens, UniProt Q9Y6L6)
# Sequence (Q9Y6L6 whole entry): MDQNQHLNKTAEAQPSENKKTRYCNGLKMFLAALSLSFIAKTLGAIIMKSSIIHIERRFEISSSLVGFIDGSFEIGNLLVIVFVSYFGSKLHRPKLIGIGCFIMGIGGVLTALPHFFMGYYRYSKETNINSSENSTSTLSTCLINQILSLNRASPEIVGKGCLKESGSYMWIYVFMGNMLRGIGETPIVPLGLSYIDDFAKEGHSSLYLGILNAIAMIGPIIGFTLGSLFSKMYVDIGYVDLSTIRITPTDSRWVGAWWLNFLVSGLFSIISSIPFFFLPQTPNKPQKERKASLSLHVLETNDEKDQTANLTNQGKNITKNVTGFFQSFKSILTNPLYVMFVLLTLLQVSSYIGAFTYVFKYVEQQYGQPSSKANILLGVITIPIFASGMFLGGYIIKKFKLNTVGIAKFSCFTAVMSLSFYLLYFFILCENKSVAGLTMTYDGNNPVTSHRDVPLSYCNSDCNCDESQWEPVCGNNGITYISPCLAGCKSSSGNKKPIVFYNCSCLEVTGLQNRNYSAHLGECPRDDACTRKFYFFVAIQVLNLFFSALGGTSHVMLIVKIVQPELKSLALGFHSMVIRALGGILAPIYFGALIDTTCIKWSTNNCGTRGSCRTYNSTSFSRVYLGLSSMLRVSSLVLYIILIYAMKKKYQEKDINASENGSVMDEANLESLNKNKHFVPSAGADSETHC
# Protocol conditions: chinese hamster, cho, 10 µM
One number for each entry, in %.

See these solved cases before continuing.
COc1ccnc(C[S+]([O-])c2nc3ccc(OC(F)F)cc3[nH]2)c1OC (centres undefined) | 81.37
O=c1cccc2n1C[C@@H]1CNC[C@H]2C1 | 99.71
CC(=O)CC(=O)CCC(=O)O | 92.01
COc1cccc2c1CCC1CC(=O)CC[C@]21C (some centres undefined) | 118
Nc1ccc(C(=O)NCC(=O)O)cc1 | 82.43

Lab note: each compound below needs its residual activity filled in.
1. CCCCC1=NC2(CCCC2)C(=O)N1Cc1ccc(-c2ccccc2-c2nnn[nH]2)cc1
2. CCCCc1nc(Cl)c(CO)n1Cc1ccc(-c2ccccc2-c2nn[nH]n2)cc1

1: 76.05; 2: 23.21

Lab note: each compound below needs its residual activity filled in.
1. CC(=O)N(O)CCCCCNC(=O)CCC(=O)N(O)CCCCCNC(=O)CCC(=O)N(O)CCCCCN.CS(=O)(=O)O [DEFEROXAMINE MESYLATE]
2. Nc1ccc(S(=O)(=O)[N-]c2cnc3ccccc3n2)cc1.[Na+] [SULFAQUINOXALINE SODIUM]

1: 116.4; 2: 73.75

---

# Experimental system: Solute carrier organic anion transporter family member 1B3 (Homo sapiens, UniProt Q9NPD5)
# Protocol conditions: chinese hamster, cho, 10 µM
Please go through the items and note down their residual activity.
For clarity, give the value followed by its unit.

NC(N)=O | 105.9%
COC(=O)Nc1nc2ccc(C(=O)c3ccccc3)cc2[nH]1 | 99%
CC1(C)C2CC(=O)O[C@@]3(C)C4=CC(=O)O[C@@H](c5ccoc5)[C@]4(C)CCC3[C@@]2(C)C=C[C@H]1O (some centres undefined) | 53.06%
COc1cc(OC)c2c(OC)c(-c3ccc4c(c3)OCO4)c(=O)oc2c1 | 115.7%
CC1=CC(=O)CC(C)(C)C1(O)/C=C/C(C)=C\C(=O)O (racemic) [ABSCISIC ACID] | 92.91%

Lab note: each compound below needs its residual activity filled in.
1. C[C@H]1[C@H]2CC[C@H]3[C@@H]4CC=C5C[C@@H](N(C)C)CC[C@]5(C)[C@H]4CC[C@]23CN1C
2. Clc1ccc(Cl)cc1
3. Oc1cc(O)c2c(c1)O[C@H](c1cc(O)c(O)c(O)c1)[C@H](O)C2 [EPIGALLOCATECHIN]

1. 111.5%
2. 96.49%
3. 96.72%

# get_value(readout='residual activity', item= O=C(O)c1cc2cc(F)ccc2[nH]1 )
103.9%
